biological target: c-Met kinase (h-Met; histidine-tagged c-Met catalytic domain fusion protein) (Homo sapiens (Human)); experiment: In Vitro c-Met Kinase Enzyme Assays; details: phosphorylation of poly Glu-Tyr, 5 μM ATP, 25 minutes at 30° C.
Sequence (P08581 1078-1345): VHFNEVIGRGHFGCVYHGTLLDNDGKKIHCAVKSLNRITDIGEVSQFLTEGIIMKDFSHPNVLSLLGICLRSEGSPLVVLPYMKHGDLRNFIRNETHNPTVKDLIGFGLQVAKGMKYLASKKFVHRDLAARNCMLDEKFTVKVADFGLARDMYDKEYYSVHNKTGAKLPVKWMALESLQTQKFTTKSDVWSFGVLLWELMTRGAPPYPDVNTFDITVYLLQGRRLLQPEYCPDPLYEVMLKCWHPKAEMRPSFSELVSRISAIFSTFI
recorded metric: IC50

> print(dat)
                            smiles.notation  meas.value
1  O=C(NC1CC1)c1cccc(-c2cnc3ncc(C4(c5ccc6ncccc6c5)CC4)n3c2)c1    < 500 nM
2  CN(C)C(=O)NCc1ccc(-c2cnc3ncc(C4(c5ccc6ncccc6c5)CC4)n3c2)cc1F    < 500 nM
3  COc1ccc(Oc2cnc3ncc(-c4ccc(Br)cc4)cn23)cc1   < 3000 nM
4  CNC(=O)c1ccc(-c2cnc3ncc(Sc4ccc(OC)cc4)n3c2)cc1F    < 500 nM
